Below is a list of entries, each paired with its recorded TGI value.
Test system: UO-31 renal
test_details: NCI tumour cell line growth inhibition, 48 h
Supply the numeric figure in µM, leaving out any unit text.

Use the examples below as a reference point.
COS(=O)c1cc(Cl)cc(Cl)c1OC(=O)CSSCC(=O)Oc1c(Cl)cc(Cl)cc1S(=O)OC (stereo not given)    60
COC(=O)CCC(C)[C@H]1CCC2C3CC[C@@H]4CC5(CC[C@]4(C)C3C[C@H](OC(C)=O)[C@@]21C)OOC1(CCCCC1)OO5 (stereo not given in full)    9.04
CC[C@]1(c2ccc3c(c2)OCO3)C=[N+]([O-])O[C@H](OC2CCCC2(c2ccccc2)c2ccccc2)[C@@H]1OC(C)=O (stereo not given in full)    5.21
COC(=O)c1ccc(NC(N)=NCCC(C)(C)c2ccc(C(F)(F)F)cc2)nc1    15.6
O=C(Nc1nc2ccc(S(=O)(=O)Nc3ccc(C4(C(F)(F)F)CC4)cc3)cc2[nH]1)c1cnccn1    13.9
O=[N+]([O-])c1cccnc1S(=O)(=O)c1ccccc1    14
COC(=O)[C@]12CC[C@@H](C)[C@H](C)[C@@H]1C1=CC[C@@H]3[C@@]4(C)C(C=O)=C[C@@](C)(COS(C)(=O)=O)C4=CC[C@@]3(C)[C@]1(C)CC2    0.321

From here, focus on the item given below.
Query: GET /values?readout=TGI&item= "COC(=O)[C@H](C)NC(=O)[C@H](NS(=O)(=O)c1nc2ccccc2s1)c1ccccc1"
Result: 35.8

---

System: MDA-N
test_details: NCI tumour cell line growth inhibition, 48 h
Entries and their TGI

Worked cases, answers included:
O=c1[nH]nc(Nc2ccc(Cl)cc2)c2nnn(C3CCCCC3)c12    > 100 µM
CCCCCCCCCCCC1=C(O)C(=O)C(CC2=C(O)C(=O)C(CCCCCCCCCCC)=C(O)C2=O)=C(O)C1=O    > 100 µM
COC(=O)Nc1cc(OCCCOC(C)=O)c2[nH]c(C(=O)OC)cc2c1C[C@H](O)CO    > 100 µM

Query: Value lookup for TGI; key = "CC(C)Oc1cccc(N2C(CCc3c[nH]c4ccc(Br)cc34)=NS(=O)(=O)c3cnccc32)c1"
Result: > 100 µM

Query: What TGI value was documented for this compound, "CC(C)(C)C(=O)c1c(O)c2ccccc2c2ccccc2c1=O" ?
Result: > 100 µM

Query: Look at this compound and give its reported TGI. "Cc1cccc2c1nc1n2C(=O)c2ccccc2-1"
Result: > 100 µM

Query: Entry under review: O=S(Nc1ccccc1)c1ccc(Cl)cc1 (stereo not given) . Reported TGI?
Result: > 100 µM

Query: I would be grateful if you could share the reported TGI for "O=C(/C=C/c1ccccc1)c1cc(CN2CCOCC2)c(O)c(CN2CCOCC2)c1" .
Result: 39 µM

Query: Give its TGI value. Item: CCCC(O)[C@@]1(CC)CC(C)C(O)(C2(C)C[C@H](C)[C@@H](C(CC)C(=O)C(C)[C@@H](O)[C@H](C)C3OC(O)(C(CC)C(=O)O)[C@@H](C)C(O)C3CC)O2)O1 (stereo not given in full)
Result: 1.86 µM

Query: Need TGI of Cc1cc(OC2OC(CO)C(O)C(O)C2O)ccc1O (stereo not given) , thanks.
Result: > 100 µM

Numbers sourced from PubChem BioAssay (NCI).
